Data provenance is ChEMBL document CHEMBL6114951.

Attribute: pIC50
# assay details: in vitro
# protocol conditions: human, HEK293T cells
# Description: Cytotoxicity against HEK293T cells by CCK-8 assay
Keep in mind that pIC50 stands for -log10 of concentration in molar terms.

CN1CCC(Nc2nc(Nc3ccc(Oc4ccccc4)cc3)c3c(=O)[nH]cc(Br)c3n2)CC1 5.01

Attention now shifts to the item below.
Quickly give me recorded pIC50 for CC(C)N1CCC(Nc2ncc(C(N)=O)c(Nc3ccc(Oc4ccccc4)cc3)n2)CC1
4.40

---

# Tested on: MV4-11
# assay details: cells
# protocol conditions: Homo sapiens
# Description: Antiproliferative activity against human MV4-11 cells by CCK-8 assay
Attribute: IC50
Answer with a number only, understood to be in µM.

Examples from the recorded data:
compound	measured number
NC(=O)c1cnc(N2CCCC2)nc1Nc1ccc(Oc2ccccc2)cc1	35.8
CC(=O)N1CCC(Nc2nc(Nc3ccc(Oc4ccccc4)cc3)c3ccccc3n2)CC1	6.96
CN1CCC(N(C)c2ncc(C(N)=O)c(Nc3ccc(Oc4ccccc4)cc3)n2)CC1	0.66
N#Cc1cnc(NC2CCCC2)nc1Nc1ccc(Oc2ccccc2)cc1	35.2
N#Cc1cnc(N2CCCC2)nc1Nc1ccc(Oc2ccccc2)cc1	30.9
CN1CCC(Nc2ncc(C#N)c(Nc3ccc(Oc4ccccc4)cc3)n2)CC1	12.5

Quickly give me recorded IC50 for CN1CCC(Nc2nc(Nc3ccc(Oc4ccccc4)cc3)c3c(=O)[nH]cc(Br)c3n2)CC1 [DENFIVONTINIB]
0.003

Quickly give me recorded IC50 for CN1CCC(Nc2ncc(C(N)=O)c(Nc3ccc(Oc4ccccc4)cc3)n2)CC1
2.09

Quickly give me recorded IC50 for CC(C)N1CCC(Nc2ncc(C#N)c(Nc3ccc(Oc4ccccc4)cc3)n2)CC1
7.19

---

# Tested on: HCT-116
# assay details: cells
# protocol conditions: Homo sapiens
# Description: Antiproliferative activity against human HCT-116 cells by CCK-8 assay
measured attribute: pIC50
Keep in mind that pIC50 stands for -log10 of concentration in molar terms.

Examples from the recorded data:
CCNC(=O)c1c(C)nc(NC2CCN(C)CC2)nc1Nc1ccc(Oc2ccccc2)cc1 4.63
CN1CCC(Nc2ncc(C(N)=O)c(Nc3ccc(Oc4ccccc4)cc3)n2)CC1 5.72

Quickly give me recorded pIC50 for CC(C)N1CCC(Nc2ncc(C(N)=O)c(Nc3ccc(Oc4ccccc4)cc3)n2)CC1
5.50

Quickly give me recorded pIC50 for CN1CCC(Nc2nc(Nc3ccc(Oc4ccccc4)cc3)c3ccccc3n2)CC1
5.07

Quickly give me recorded pIC50 for CC(=O)N1CCC(Nc2nc(Nc3ccc(Oc4ccccc4)cc3)c3ccccc3n2)CC1
4.62

Quickly give me recorded pIC50 for CN1CCC(N(C)c2ncc(C(N)=O)c(Nc3ccc(Oc4ccccc4)cc3)n2)CC1
5.41

---

# Tested on: HCT-116
# assay details: cells
# protocol conditions: Homo sapiens
measured attribute: pIC50
Keep in mind that pIC50 stands for -log10 of concentration in molar terms.

compound	target under test	pIC50
CCOC(=O)c1c(C)nc(NC2CCN(C)CC2)nc1Nc1ccc(Oc2ccccc2)cc1	HCT-116	5.87
CN1CCC(Nc2ncc(C#N)c(Nc3ccc(Oc4ccccc4)cc3)n2)CC1	HCT-116	5.05
CN1CCC(N(C)c2ncc(C#N)c(Nc3ccc(Oc4ccccc4)cc3)n2)CC1	HCT-116	5.22

Quickly give me recorded pIC50 for NC(=O)c1cnc(NC2CCCC2)nc1Nc1ccc(Oc2ccccc2)cc1
4.63

Quickly give me recorded pIC50 for CN1CCC(Nc2nc(Nc3ccc(Oc4ccccc4)cc3)c3c(=O)[nH]cc(Br)c3n2)CC1 [DENFIVONTINIB]
5.50
